All figures here come from PubChem BioAssay (NCI).

# System: MDA-MB-435
# run.description: NCI tumour cell line growth inhibition, 48 h
Listed here: items and their measured TGI.
endpoint.name: TGI

# molecule, endpoint.name, value.observed
records = [
    ("Cc1ccc(S(=O)(=O)N/N=c2/sc3ccccc3n2C)cc1", "TGI", "> 100 µM"),
    ("C/C(=N\\NC(=S)NC(C)(C)C)c1nc2ncccc2[nH]1", "TGI", "> 78.4 µM"),
    ("Cc1cc(OC2OC(CO)C(O)C(O)C2O)ccc1O (stereo not given)", "TGI", "> 100 µM"),
    ("COc1ccc(C2C(=O)c3ccc(OC)cc3OC2c2cccnc2)cc1 (stereo not given)", "TGI", "> 100 µM"),
    ("Cn1cc(-c2ccc3ncc(-c4ccc(CC(=O)Nc5cc(C(C)(C)C)nn5C)cc4)cc3c2)cn1", "TGI", "> 20 µM"),
    ("COC(=O)C(Cc1ccccc1)NC(=O)C(CNC(=O)OCc1ccccc1)C(=O)OCc1ccccc1 (stereo not given)", "TGI", "> 100 µM"),
    ("Nc1c(C(=O)Nc2ccccc2)sc2nc3c(cc12)C(=O)CCC3", "TGI", "> 100 µM"),
    ("CC(=O)c1c(-c2ccc(Cl)cc2)c(C#N)c(=S)n(C2OC(CO)C(O)C(O)C2O)c1C (stereo not given)", "TGI", "> 100 µM"),
    ("COC(=O)Nc1cc(OCCCOC(C)=O)c2[nH]c(C(=O)OC)cc2c1C[C@H](O)CO", "TGI", "> 100 µM"),
    ("CCOC(=O)N1CCNCCN(C(=O)OCC)CCNCC1", "TGI", "> 100 µM"),
    ("O=C(Nc1cccc2ccccc12)c1cc2ccccc2oc1=O", "TGI", "> 100 µM"),
    ("CC(C)Oc1cccc(N2C(CCc3c[nH]c4ccc(Br)cc34)=NS(=O)(=O)c3cnccc32)c1", "TGI", "> 100 µM"),
    ("CCc1c(O)nc(Nc2nc3ccccc3[nH]2)[nH]c1=O", "TGI", "> 100 µM"),
    ("O=C1Nc2ccc(-c3cccnc3)cc2/C1=C/c1cc(Br)c(O)c(Br)c1", "TGI", "> 21.7 µM"),
    ("[N-]=[N+]=CC(=O)C1CCN(c2ccccc2)C1=O (stereo not given)", "TGI", "> 10 µM"),
    ("NC1=NC(c2ccccc2Cl)c2c(n[nH]c2N)N1 (stereo not given)", "TGI", "> 100 µM"),
    ("CC(=O)Nc1cccc(C#Cc2cncnc2Nc2ccc(OCc3cccc(F)c3)c(Cl)c2)c1", "TGI", "> 25 µM"),
    ("CC(=O)O[C@H]1CC[C@@H](OC(C)=O)[C@H]2[C@H](O)[C@H](O)[C@@H]1n1c(=O)n(-c3ccccc3)c(=O)n12", "TGI", "> 100 µM"),
    ("BrC1(c2ccccc2)C[n+]2c(-c3ccccc3)cc(-c3ccccc3)cc2-c2ccccc21 (stereo not given)", "TGI", "0.538 µM"),
    ("O=c1c2ccc(Cl)cc2oc2c(CSc3ccccc3)cccc12", "TGI", "> 68.3 µM"),
    ("O=c1[nH]nc(Nc2ccc(Cl)cc2)c2nnn(C3CCCCC3)c12", "TGI", "> 100 µM"),
    ("Cc1cc(NC(=O)NC(=O)c2ccccc2NC(=O)CN(C)C)ccc1Oc1ncc(Br)cn1", "TGI", "3.09 µM"),
    ("CC(C)=CC1C(C(=O)OCc2cc3c(cc2Cl)OCO3)C1(C)C (stereo not given)", "TGI", "> 100 µM"),
    ("N#CN1CC[C@H](C(=O)Nc2ncc(-c3ccccc3)s2)C1", "TGI", "1.73 µM"),
    ("CC(C)CNP(=O)(NCC(C)C)Oc1ccc(CC(NC(=O)OCc2ccccc2)C(=O)OCc2ccccc2)cc1 (stereo not given)", "TGI", "22.8 µM"),
]

###

# Tested on: CCRF-CEM leukemia
# run.description: NCI tumour cell line growth inhibition, 48 h; in the data active = GI50 below about 0.43 µM; inactive = the rest
Labels: yes (1) (active), no (0) (inactive)

# chemical.smiles, assigned.label
measured = [
    ("NC(=O)c1nc(-c2c(F)cccc2Cl)oc1Nc1ccc(C(=O)N2CCOCC2)cc1", "yes (1)"),
    ("N#CN1CC[C@H](C(=O)Nc2ncc(-c3ccccc3)s2)C1", "yes (1)"),
    ("COc1cc([C@@H]2c3cc4c(cc3[C@H](SC(=N)N)[C@H]3COC(=O)[C@H]23)OCO4)cc(OC)c1OC", "yes (1)"),
    ("N#Cc1cc(F)cc(Oc2ccc(S(=O)(=O)C(F)F)c3c2CC(F)(F)[C@H]3O)c1", "no (0)"),
]

###

The reader will find reported TGI values listed item by item below.
# Test system: SNB-19 CNS
# run.description: NCI tumour cell line growth inhibition, 48 h

# compound, TGI
records = [
    ("CC(C)(NO)/C(=N\\O)c1ccccc1", "> 10 µM"),
    ("CCc1c(O)nc(Nc2nc3ccccc3[nH]2)[nH]c1=O", "> 100 µM"),
    ("O=C1Nc2noc(=O)nc2NO1", "> 200 µM"),
    ("O=C(OCCN=c1c2ccccc2ccc2ccccc12)c1cc([N+](=O)[O-])cc([N+](=O)[O-])c1", "> 100 µM"),
    ("O=C(O)[C@H]1NC[C@H]2C(Br)=NO[C@@H]12", "> 100 µM"),
    ("COc1cc2c(cc1O)NC(=O)[C@@H]1C[C@@H](O)CN1C2=O", "> 100 µM"),
    ("N#CC(C(=O)Nc1ccccc1)C1=C(Cl)C(=O)c2ccccc2C1=O (stereo not drawn)", "36.3 µM"),
    ("CCOC(=O)C1C(c2ccc(Br)cc2)N(Cc2ccccc2)C(c2ccc(Br)cc2)C(C(=O)OC)S1(=O)=O (stereo not drawn)", "> 100 µM"),
]

###

Measured TGI, listed per entry.
# Tested on: SK-MEL-5 melanoma
# run.description: NCI tumour cell line growth inhibition, 48 h
endpoint.name: TGI

# compound, endpoint.name, value.observed
records = [
    ("O=C1/C(=C\\c2cccc(Oc3ccccc3)c2)SC(c2ccccc2)N1c1cc(Cl)ccc1Cl (stereo not given)", "TGI", "> 100 µM"),
    ("CC(=O)Nc1cccc(C#Cc2cncnc2Nc2ccc(OCc3cccc(F)c3)c(Cl)c2)c1", "TGI", "> 25 µM"),
    ("O=C(/C=C\\c1ccccc1)Oc1ccc(/C=C2\\CCC/C(=C\\c3ccc(OC(=O)/C=C\\c4ccccc4)cc3)C2=O)cc1", "TGI", "> 100 µM"),
    ("CC(C)(C)OC(=O)N[C@H]1CC(=O)c2ccccc2N(CC(=O)O)C1=O", "TGI", "> 100 µM"),
    ("Cc1cc(OC2OC(CO)C(O)C(O)C2O)ccc1O (stereo not given)", "TGI", "> 100 µM"),
    ("Cc1ccc(C(=O)Nc2ccc(Oc3cc4cnn(C)c4cc3-c3cn[nH]c3)c(F)c2)c(=O)n1-c1ccc(F)cc1", "TGI", "> 100 µM"),
    ("Cc1n[nH]c(=O)n1-n1cccc1", "TGI", "> 100 µM"),
    ("CN(Cc1cnc2nc(N)nc(N)c2n1)c1ccc(C(=O)NC(CCC(=O)O)C(=O)O)c2ccccc12 (stereo not given)", "TGI", "> 1000 µM"),
    ("CCC12CCC[C@@]13C=C[C@H](O3)C(C)(C)C2=O (stereo not given in full)", "TGI", "> 100 µM"),
    ("O=C1OC(=O)c2c1nc1ccccc1c2-c1ccccc1", "TGI", "> 100 µM"),
]

###

Each entry below carries its reported TGI.
# System: U251 CNS
# run.description: NCI tumour cell line growth inhibition, 48 h
endpoint.name: TGI

# compound, endpoint.name, value.observed
records = [
    ("C[C@H]1CCC/C=C/[C@@H]2C[C@H](OC3OC(CO)C(O)C(O)C3O)C[C@H]2[C@H](O)/C=C/C(=O)O1 (stereo partly specified)", "TGI", "> 100 µM"),
    ("O=C1Nc2ccc(-c3cccnc3)cc2/C1=C/c1cc(Br)c(O)c(Br)c1", "TGI", "> 25 µM"),
    ("Cc1cc2nc(N3C(=O)/C(=C/Cc4ccco4)N=C3c3ccccc3)sc2cc1C", "TGI", "> 100 µM"),
    ("Cc1ccc(C(=O)Nc2ccc(CP(=O)(O)O)cc2CP(=O)(O)O)cc1N", "TGI", "> 100 µM"),
    ("CC(C)(C)C(=O)c1c(O)c2ccccc2c2ccccc2c1=O", "TGI", "> 100 µM"),
    ("N=C(N)n1cc(/C=N/N=C(N)N)cn1", "TGI", "> 100 µM"),
    ("C#Cc1cccc(NC(=O)/C=C\\C(=O)O)c1", "TGI", "> 100 µM"),
    ("CCC12CCC[C@@]13C=C[C@H](O3)C(C)(C)C2=O (stereo partly specified)", "TGI", "> 100 µM"),
    ("CC1=NC(=N)N=C(C)C1N=Nc1ccc2nc(C)[nH]c2c1 (stereo unspecified)", "TGI", "> 100 µM"),
    ("CN(C)CCNC(=O)Nc1ccc(N(C)c2ccnc(Nc3ccc(CS(C)(=O)=O)cc3)n2)cc1", "TGI", "> 25 µM"),
    ("O=C(N/N=C/c1ccccc1)c1c(F)c(F)c(F)c(F)c1F", "TGI", "> 100 µM"),
]
